From: paper PMC7617456

# EXPERIMENT DESCRIPTION: Dog pharmacokinetics
# Assay type: in vivo
# ASSAY SETUP: male, beagle, whole blood; dog IV 3 mg/kg

[
  {
    "COMPOUND": "Nc1nc2c(c(C(F)(F)F)n1)C(=O)N(CC1CCCC(C(F)(F)F)C1)C2 (stereo not shown)",
    "AUC": "1000 ng·h/mL"
  }
]

====

A collection of compounds and their measured fraction unbound
# EXPERIMENT DESCRIPTION: Plasma protein binding, rat
# Type: in vitro ADME
# ASSAY SETUP: read-out: PPB (r) (converted)
ASSAY METRIC: fraction unbound

[
  {
    "COMPOUND": "O=C(NCC1(O)CCCCC1)c1cc(=O)c2cc(O)ccc2o1 [DDD508]",
    "ASSAY METRIC": "fraction unbound",
    "RECORDED MEASUREMENT": 0.47
  },
  {
    "COMPOUND": "Nc1nc2c(c(C(F)(F)F)n1)C(=O)N(CC1CCCC(C(F)(F)F)C1)C2 (centres unmarked) [DDD489]",
    "ASSAY METRIC": "fraction unbound",
    "RECORDED MEASUREMENT": 0.42
  }
]

====

Entries and their Vd values follow.
# EXPERIMENT DESCRIPTION: Mouse pharmacokinetics
# ASSAY SETUP: female, BALB/C, mouse, whole blood, iv, 3 mg/kg

[
  {
    "MOLECULE": "Nc1nc2c(c(C(F)(F)F)n1)C(=O)N(CC1CCCC(C(F)(F)F)C1)C2 (centres unmarked) [DDD489]",
    "Vd": "2.8 L/kg"
  },
  {
    "MOLECULE": "O=C(NCC1(O)CCCCC1)c1cc(=O)c2cc(O)ccc2o1 [DDD508]",
    "Vd": "1.8 L/kg"
  }
]

====

pIC50: −log10 of the molar value.
Measurement record for UniProt:Q5CR27; quantity recorded: pIC50.
Sequence (Q5CR27 entry or part of it): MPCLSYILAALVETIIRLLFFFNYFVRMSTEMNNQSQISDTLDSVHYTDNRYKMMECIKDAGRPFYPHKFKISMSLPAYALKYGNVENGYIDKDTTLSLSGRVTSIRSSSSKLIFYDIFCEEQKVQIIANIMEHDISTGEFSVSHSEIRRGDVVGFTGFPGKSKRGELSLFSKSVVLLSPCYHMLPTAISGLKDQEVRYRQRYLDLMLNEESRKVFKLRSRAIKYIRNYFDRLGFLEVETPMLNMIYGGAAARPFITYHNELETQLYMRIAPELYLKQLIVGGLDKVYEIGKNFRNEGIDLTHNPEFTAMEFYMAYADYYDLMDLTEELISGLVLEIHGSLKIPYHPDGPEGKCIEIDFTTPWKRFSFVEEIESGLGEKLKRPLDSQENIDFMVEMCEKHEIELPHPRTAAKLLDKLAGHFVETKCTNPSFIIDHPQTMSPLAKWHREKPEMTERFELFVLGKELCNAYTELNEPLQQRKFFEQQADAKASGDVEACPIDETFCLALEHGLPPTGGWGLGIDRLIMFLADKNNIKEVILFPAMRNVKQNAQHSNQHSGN

[
  {
    "MOLECULE": "Nc1nc2c(c(C(F)(F)F)n1)C(=O)N(CC1CCCC(C(F)(F)F)C1)C2 (centres unmarked) [DDD489]",
    "pIC50": 6.07
  },
  {
    "MOLECULE": "O=C(NCC1(O)CCCCC1)c1cc(=O)c2cc(O)ccc2o1 [DDD508]",
    "pIC50": 5.77
  }
]

====

# Test system: P-gp (MDR1)
# EXPERIMENT DESCRIPTION: in vitro
# ASSAY SETUP: dog, MDCK-MDR1
Some molecules, each annotated with its measured efflux ratio.

[
  {
    "MOLECULE": "Nc1nc2c(c(C(F)(F)F)n1)C(=O)N(CC1CCCC(C(F)(F)F)C1)C2 (centres unmarked)",
    "efflux ratio": 1.3
  },
  {
    "MOLECULE": "O=C(NCC1(O)CCCCC1)c1cc(=O)c2cc(O)ccc2o1",
    "efflux ratio": 9.5
  }
]

====

# EXPERIMENT DESCRIPTION: Mouse pharmacokinetics
# ASSAY SETUP: female, BALB/C, mouse, whole blood, po, 10 mg/kg
Collected AUC values appear next to each entry.
ASSAY METRIC: AUC (ng·h/mL)

[
  {
    "COMPOUND": "O=C(NCC1(O)CCCCC1)c1cc(=O)c2cc(O)ccc2o1",
    "ASSAY METRIC": "AUC",
    "UNITS TEXT": "ng·h/mL",
    "RECORDED MEASUREMENT": 267
  },
  {
    "COMPOUND": "Nc1nc2c(c(C(F)(F)F)n1)C(=O)N(CC1CCCC(C(F)(F)F)C1)C2 (centres unmarked)",
    "ASSAY METRIC": "AUC",
    "UNITS TEXT": "ng·h/mL",
    "RECORDED MEASUREMENT": 517
  }
]

====

# EXPERIMENT DESCRIPTION: Dog pharmacokinetics
# Assay type: in vivo
# ASSAY SETUP: male, beagle, whole blood, 3 mg/kg; dog, IV; read-out: T½ (converted)

[
  {
    "COMPOUND": "Nc1nc2c(c(C(F)(F)F)n1)C(=O)N(CC1CCCC(C(F)(F)F)C1)C2 (stereo not shown)",
    "UNITS TEXT": "h",
    "half-life": 1.7
  }
]

====

Catalogue of AUC values
# EXPERIMENT DESCRIPTION: Mouse pharmacokinetics
# ASSAY SETUP: female, BALB/C, mouse, whole blood, iv, 3 mg/kg
ASSAY METRIC: AUC (ng·h/mL)

[
  {
    "MOLECULE": "Nc1nc2c(c(C(F)(F)F)n1)C(=O)N(CC1CCCC(C(F)(F)F)C1)C2 (centres unmarked) [DDD489]",
    "RECORDED MEASUREMENT": 2280
  },
  {
    "MOLECULE": "O=C(NCC1(O)CCCCC1)c1cc(=O)c2cc(O)ccc2o1 [DDD508]",
    "RECORDED MEASUREMENT": 1480
  }
]

====

# EXPERIMENT DESCRIPTION: Rat pharmacokinetics
# Format: in vivo
# ASSAY SETUP: male, Hans Wistar, whole blood; rat PO 10 mg/kg; read-out: F (oral bioavailability)
Each item that follows carries a reported bioavailability.
ASSAY METRIC: bioavailability (%)

[
  {
    "COMPOUND": "Nc1nc2c(c(C(F)(F)F)n1)C(=O)N(CC1CCCC(C(F)(F)F)C1)C2 (centres unmarked)",
    "RECORDED MEASUREMENT": 3.2
  },
  {
    "COMPOUND": "O=C(NCC1(O)CCCCC1)c1cc(=O)c2cc(O)ccc2o1",
    "RECORDED MEASUREMENT": 14
  }
]

====

AC50 by entry:
# System: mitochondrial function
# EXPERIMENT DESCRIPTION: Functional mitochondrial toxicity assay (Seahorse XFe96)
# Format: cell-based
# ASSAY SETUP: read-out: Oxygen consumption AC50

[
  {
    "COMPOUND": "O=C(NCC1(O)CCCCC1)c1cc(=O)c2cc(O)ccc2o1 [DDD508]",
    "AC50": "> 100 µM"
  },
  {
    "COMPOUND": "Nc1nc2c(c(C(F)(F)F)n1)C(=O)N(CC1CCCC(C(F)(F)F)C1)C2 (centres unmarked) [DDD489]",
    "AC50": "> 100 µM"
  }
]

====

# EXPERIMENT DESCRIPTION: Dog pharmacokinetics
# Type: in vivo
# ASSAY SETUP: male, beagle, whole blood; dog PO 10 mg/kg

[
  {
    "MOLECULE": "Nc1nc2c(c(C(F)(F)F)n1)C(=O)N(CC1CCCC(C(F)(F)F)C1)C2 (stereo not shown)",
    "Tmax": "1.2 h"
  }
]

====

# solubility at 24 h annotations
# EXPERIMENT DESCRIPTION: Aqueous (kinetic) solubility by UHPLC
# Type: physicochemical
# ASSAY SETUP: 25 °C, aqueous buffer, kinetic from dmso stock, PBS pH 7.4, UHPLC
ASSAY METRIC: solubility at 24 h

[
  {
    "MOLECULE": "COc1cc(NS(=O)(=O)CCN2CCCC2)c2oc(C(=O)N[C@@H](C)C3CCCCC3)cc(=O)c2c1 [DDD582]",
    "RECORDED MEASUREMENT": "225 µM"
  },
  {
    "MOLECULE": "O=C(NCC1CCCCC1)c1cc(=O)c2ccc(F)c(O)c2o1 [DDD714]",
    "RECORDED MEASUREMENT": "377 µM"
  },
  {
    "MOLECULE": "O=C(NCC1(F)CCCCC1)c1cc(=O)c2ccc(F)c(O)c2o1 [DDD993]",
    "RECORDED MEASUREMENT": "234 µM"
  },
  {
    "MOLECULE": "Nc1nc2c(c(C(F)(F)F)n1)C(=O)N(CC1CCCC(C(F)(F)F)C1)C2 (centres unmarked) [DDD489]",
    "RECORDED MEASUREMENT": "21 µM"
  },
  {
    "MOLECULE": "O=C(NCC1CCCCC1)c1cc(=O)c2cc(F)c(F)c(O)c2o1 [DDD690]",
    "RECORDED MEASUREMENT": "226 µM"
  },
  {
    "MOLECULE": "O=C(NCC1(O)CCCCC1)c1cc(=O)c2ccc(F)c(O)c2o1 [DDD844]",
    "RECORDED MEASUREMENT": "63 µM"
  },
  {
    "MOLECULE": "Nc1cc(F)cc2c(=O)cc(C(=O)NCC3(O)CCCCC3)oc12 [DDD229]",
    "RECORDED MEASUREMENT": "1.9 µM"
  },
  {
    "MOLECULE": "O=C(NCC1(O)CCCCC1)c1cc(=O)c2cc(O)ccc2o1 [DDD508]",
    "RECORDED MEASUREMENT": "184 µM"
  }
]
